Molecular target: UniProt P52700
Sequence (P52700 34-290): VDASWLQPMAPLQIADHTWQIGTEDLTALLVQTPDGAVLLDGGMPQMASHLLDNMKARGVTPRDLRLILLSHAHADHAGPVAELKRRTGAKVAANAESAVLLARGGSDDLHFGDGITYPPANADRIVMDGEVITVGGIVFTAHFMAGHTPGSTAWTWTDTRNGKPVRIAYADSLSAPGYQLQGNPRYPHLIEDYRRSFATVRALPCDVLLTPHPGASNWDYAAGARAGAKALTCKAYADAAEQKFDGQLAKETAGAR
Test: β-lactamase inhibition, FC-5 fluorogenic cephalosporin assay
Conditions: L1, subclass B3
Readout Name: IC50
Quick note: unit goes after the number.

Form field - read-out: IC50; system: UniProt P52700; submitted item: O=C(O)C[C@@H]1CC[C@H](NC(=O)Cc2cccs2)B(O)O1
336 µM
